Assay: Oral bioavailability in rat at 5 mg/kg
Format: ADME, organism-based
Conditions: in vivo

| COMPOUND | bioavailability |
| --- | --- |
| COc1ccc2nccc([C@@H](O)CC[C@@H]3CCN(C4CC(c5ccccc5)C4)C[C@@H]3C(=O)O)c2c1 (stereo partly drawn) | 27% |
| COc1ccc2nccc([C@@H](O)CC[C@@H]3CCN(C4CC(c5cc(F)ccc5F)C4)C[C@@H]3C(=O)O)c2c1 (stereo partly drawn) | 47% |
| COc1ccc2ncc(F)c([C@@H](O)CC[C@@H]3CCN(CCSc4cccs4)C[C@@H]3C(=O)O)c2c1 | 31.5% |

* * *

Test: Inhibition of Staphylococcus aureus DNA topoisomerase 4
pIC50: −log10 of the molar value.
Reported pIC50 values follow for various compounds

| COMPOUND | VALUE RELATION SIGN | pIC50 |
| --- | --- | --- |
| COc1ccc2nccc([C@@H](O)CC[C@@H]3CCN(C4CC(c5ncc(C)o5)C4)C[C@@H]3C(=O)O)c2c1 (stereo not given in full) | < | 4.00 |
| COc1ccc2nccc([C@@H](O)CC[C@@H]3CCN(C4CC(c5cc(C(F)(F)F)ccc5F)C4)C[C@@H]3C(=O)O)c2c1 (stereo not given in full) | < | 4.00 |
| COc1ccc2nccc([C@@H](O)CC[C@@H]3CCN(C4CC(c5ccn[nH]5)C4)C[C@@H]3C(=O)O)c2c1 (stereo not given in full) | < | 3.92 |
| COc1ccc2nccc([C@@H](O)CC[C@@H]3CCN(C4CC(c5cc(F)cc(F)c5OC)C4)C[C@@H]3C(=O)O)c2c1 (stereo not given in full) | = | 4.22 |
| COc1ccc2nccc([C@@H](O)CC[C@@H]3CCN(C4CC(c5c(F)cc(F)cc5F)C4)C[C@@H]3C(=O)O)c2c1 (stereo not given in full) | = | 3.92 |
| COc1ccc2nccc([C@@H](O)CC[C@@H]3CCN(C4CC(c5ccc(F)c(F)c5F)C4)C[C@@H]3C(=O)O)c2c1 (stereo not given in full) | = | 3.96 |
| COc1ccc2nccc([C@@H](O)CC[C@@H]3CCN(C4CC(c5cc(F)ccc5C(F)(F)F)C4)C[C@@H]3C(=O)O)c2c1 (stereo not given in full) | = | 4.22 |
| COc1ccc2nccc([C@@H](O)CC[C@@H]3CCN(C4CC(c5ccc(F)cc5F)C4)C[C@@H]3C(=O)O)c2c1 (stereo not given in full) | = | 4.22 |
| COc1ccc2nccc([C@@H](O)CC[C@@H]3CCN(C4CC(c5ccccc5F)C4)C[C@@H]3C(=O)O)c2c1 (stereo not given in full) | = | 4.43 |
| COc1ccc2nccc([C@@H](O)CC[C@@H]3CCN(C4CC(c5c(F)cccc5C(F)(F)F)C4)C[C@@H]3C(=O)O)c2c1 (stereo not given in full) | < | 4.00 |
| COc1ccc2nccc([C@@H](O)CC[C@@H]3CCN(C4CC(c5c(F)ccc(Cl)c5F)C4)C[C@@H]3C(=O)O)c2c1 (stereo not given in full) | = | 4.60 |
| COc1ccc2nccc([C@@H](O)CC[C@@H]3CCN(C4CC(c5cc(C)ccc5F)C4)C[C@@H]3C(=O)O)c2c1 (stereo not given in full) | = | 4.12 |
| COc1ccc2nccc([C@@H](O)CC[C@@H]3CCN(C4CC(c5ccccc5)C4)C[C@@H]3C(=O)O)c2c1 (stereo not given in full) | = | 4.49 |
| COc1ccc2nccc([C@@H](O)CC[C@@H]3CCN(C4CC(c5c(F)ccc(F)c5F)C4)C[C@@H]3C(=O)O)c2c1 (stereo not given in full) | = | 4.45 |
| COc1ccc2nccc([C@@H](O)CC[C@@H]3CCN(C4CC(c5cc(C#N)ccc5F)C4)C[C@@H]3C(=O)O)c2c1 (stereo not given in full) | = | 3.92 |
